# OD450 listing for each entry below
molecular target: T1, EGFR Fc (human, UniProt P00533 25-645); assay: blocking ELISA, EGFR-hFc + VHH at 0.064 nM on coated EGF-mFc
T1 construct: also called EGFR-hFc; recombinant human EGFR-Fc
Give only the figure.

Would you please look over these solved cases?
pgEG-SX40 (VHH, not shown: small tags and cut ends) VHH: QVQLVESGGGLVQAGGSLRLSCTGSGIRFSFYTLGWYRQAPGKQRELVAEIYSSDNAKYEDSVKGRFAISRDNAKNSVSLQMNSLKPEDTAVYYCNVRATDYWGPGTQVTVSS; 1.06
pgEG-SX6 (VHH, not shown: small tags and cut ends) VHH: QVQLVESGGGTVQAGGSLRLSCVASGMREDIFDMGWYRQAPGLQRELVATITSGGSTDYADSVKGRFTISRDNTENTLNLQMNMLKPEDTAVYYCNALYFPPSGGRSSEFWGQGTLVTVSS; 0.956
pgEG-SX57 (VHH, not shown: small tags and cut ends) VHH: QVQLVESGGGLVQAGGSLRLSCAGARSIFSIKPMTWYRQAPGKERELVAWFTSGDSPNYADSVKGRFTISRDSAKNTVYLQMNNLKPEDTAVYYCNAVPPLGRWGQGTLVTVSS; 1.14
pgEG-SX3 (VHH, not shown: small tags and cut ends) VHH: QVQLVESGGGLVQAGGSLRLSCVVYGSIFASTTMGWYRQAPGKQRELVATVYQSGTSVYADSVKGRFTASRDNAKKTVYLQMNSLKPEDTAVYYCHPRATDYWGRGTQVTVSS; 0.979

Input line: // lookup OD450 for pgEG5 (VHH, not shown: small tags and cut ends) VHH: QVQLVESGGGLVQPGGSLRLSCTASHNIFSDNAMAWSRQAPGAQRELVARIATGGNTYYPDSVKGRFTISRDNAKNTVYLQMNNLTPDDTAVYYCYAERWTGLEYSRTYWGQGTQVTVSS
Output line: 1.15

Input line: // lookup OD450 for pgEG-SX22 (VHH, not shown: small tags and cut ends) VHH: QVQLVESGGGLVQAGGSLRVSCAVSGGALSAYAMAWFRQAPGKEREFVAGLNWGGDETYYADSAKGRFTISKDNAKNTVSLQMNSLEPEDTAVYYCGGRPGPLLSRATGYKYWGQGTQVTVSS
Output line: 0.983
